Target: mu receptor (Rattus norvegicus, UniProt P33535)
Construct: rat whole brain minus cerebellum for mu was homogenized; from tissue; host or cells: brain of male Sprague Dawley rats, whole brain minus cerebellum, homogenate fraction
Sequence (P33535 whole entry): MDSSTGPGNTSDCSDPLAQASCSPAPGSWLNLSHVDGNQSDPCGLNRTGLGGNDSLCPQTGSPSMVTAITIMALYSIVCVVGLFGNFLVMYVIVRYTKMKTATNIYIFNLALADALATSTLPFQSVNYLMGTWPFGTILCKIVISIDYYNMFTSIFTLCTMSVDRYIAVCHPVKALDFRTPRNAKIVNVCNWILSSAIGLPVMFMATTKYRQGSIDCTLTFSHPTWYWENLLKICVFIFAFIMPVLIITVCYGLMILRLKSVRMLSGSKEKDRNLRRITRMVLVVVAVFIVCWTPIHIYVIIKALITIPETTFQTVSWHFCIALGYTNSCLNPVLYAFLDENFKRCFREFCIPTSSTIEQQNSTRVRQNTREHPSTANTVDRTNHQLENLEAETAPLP
Experiment: opioid receptor binding assay, [3H] NAL (tritiated naloxone), mu receptor
Design: species or system rat (Male Sprague Dawley), brain minus cerebellum
Conditions: 20 min, read-out: % displacement at 10 nM, 10 nM test compound; [3H] naloxone 0.5 nM
Counter-ions that a name gives are not always drawn.
Measured inhibition at 0.01 µM, listed per entry.
reported endpoint: inhibition at 0.01 µM (%)

{"molecule": "C[C@H]1CN(CC(CC2CCCCC2)C(=O)NCCC(N)=O)CC[C@@]1(C)c1cccc(O)c1 (stereo partly shown) [Example 38, hydrochloride]", "units": "%", "val": 98}
{"molecule": "CCc1noc(CNC(=O)C(Cc2ccccc2)CN2CC[C@@](C)(c3cccc(O)c3)[C@@H](C)C2)n1 (relative stereo)", "units": "%", "val": 81}
{"molecule": "CCNC(=O)CNC(=O)C(Cc1ccccc1)CN1CC[C@@](C)(c2cccc(O)c2)[C@@H](C)C1 (stereo partly shown)", "units": "%", "val": 93}
{"molecule": "CC(C)CNC(=O)CNC(=O)C(Cc1ccccc1)CN1CC[C@@](C)(c2cccc(O)c2)[C@@H](C)C1 (stereo partly shown) [Example 50, monohydrate hydrochloride]", "units": "%", "val": 94}
{"molecule": "CCOC(=O)CNC(=O)C(CCN1CC[C@@](C)(c2cccc(O)c2)[C@@H](C)C1)c1ccccc1 (relative stereo) [Example 11, monohydrochloride]", "units": "%", "val": 81}
{"molecule": "CCOC(=O)CCCNC(=O)C(Cc1ccccc1)CN1CC[C@@](C)(c2cccc(O)c2)[C@@H](C)C1 (stereo partly shown) [Example 61, monohydrochloride monohydrate]", "units": "%", "val": 98}
{"molecule": "CCOC(=O)CCNC(=O)C(CC1CCCCC1)CN1CC[C@@](C)(c2cccc(O)c2)[C@@H](C)C1 (stereo partly shown) [Example 36, monohydrochloride]", "units": "%", "val": 79}
{"molecule": "CCOC(=O)CNC(=O)C(Cc1ccccc1)CN1CC[C@@](C)(c2cccc(O)c2)[C@@H](C)C1 (stereo partly shown) [Example 43, hydrochloride]", "units": "%", "val": 98}
{"molecule": "CCOC(=O)CCCNC(=O)C(CC1CCCCC1)CN1CC[C@@](C)(c2cccc(O)c2)[C@@H](C)C1 (stereo partly shown) [Example 39, monohydrochloride]", "units": "%", "val": 91}
{"molecule": "CCNC(=O)CCNC(=O)C(Cc1ccccc1)CN1CC[C@@](C)(c2cccc(O)c2)[C@@H](C)C1 (stereo partly shown) [Example 60, monohydrochloride]", "units": "%", "val": 100}
{"molecule": "CCCNC(=O)CNC(=O)C(Cc1ccccc1)CN1CC[C@@](C)(c2cccc(O)c2)[C@@H](C)C1 (stereo partly shown) [Example 49, monohydrate hydrochloride]", "units": "%", "val": 98}
{"molecule": "C[C@H]1CN(CC(Cc2ccccc2)C(=O)NCCC(=O)OCc2ccccc2)CC[C@@]1(C)c1cccc(O)c1 (stereo partly shown) [Example 56, hydrochloride]", "units": "%", "val": 97}
{"molecule": "CCNC(=O)CNC(=O)CNC(=O)C(Cc1ccccc1)CN1CC[C@@](C)(c2cccc(O)c2)[C@@H](C)C1 (relative stereo)", "units": "%", "val": 88}

* * *

Measured inhibition at 0.1 µM, listed per entry.
Target: mu receptor (Rattus norvegicus)
Construct: rat whole brain minus cerebellum for mu was homogenized; from tissue; host or cells: brain of male Sprague Dawley rats, whole brain minus cerebellum, homogenate fraction
Experiment: opioid receptor binding assay, [3H] NAL (tritiated naloxone), mu receptor
Parameters: species or system rat (Male Sprague Dawley), brain minus cerebellum
Details: 20 min, 100 nM test compound; [3H] naloxone 0.5 nM; read-out: % displacement at 100 nM
Counter-ions that a name gives are not always drawn.
reported endpoint: inhibition at 0.1 µM (%)

{"compound": "CNC(=O)C(Cc1ccccc1)CN1CC[C@@](C)(c2cccc(OC)c2)[C@@H](C)C1 (single isomer, unassigned) [Example 80]", "units": "%", "val": 37}
{"compound": "C[C@H]1CN(CC(Cc2ccccc2)C(=O)NCC(=O)OCC(=O)N(C)C)CC[C@@]1(C)c1cccc(O)c1 (relative stereo) [Example 90]", "units": "%", "val": 99}
{"compound": "COc1cccc([C@]2(C)CCN(CC(Cc3ccccc3)C(=O)O)C[C@@H]2C)c1 (single isomer, unassigned) [Example 79]", "units": "%", "val": 15}
{"compound": "C[C@H]1CN(CC(Cc2ccccc2)C(=O)NCC(=O)OCC(N)=O)CC[C@@]1(C)c1cccc(O)c1 (relative stereo) [Example 87]", "units": "%", "val": 99}
{"compound": "CCOC(=O)CNC(=O)C(Cc1ccccc1)CN1CC[C@@](C)(c2cccc(OC)c2)[C@@H](C)C1 (single isomer, unassigned) [Example 81]", "units": "%", "val": 55}
{"compound": "CNC(=O)CNC(=O)C(Cc1ccccc1)CN1CC[C@@](C)(c2cccc(OC)c2)[C@@H](C)C1 (single isomer, unassigned) [Example 82]", "units": "%", "val": 73}
{"compound": "CNC(=O)COC(=O)CNC(=O)C(Cc1ccccc1)CN1CC[C@@](C)(c2cccc(O)c2)[C@@H](C)C1 (relative stereo) [Example 88]", "units": "%", "val": 99}
{"compound": "CCOC(=O)CN(C)C(=O)C(Cc1ccccc1)CN1CC[C@@](C)(c2cccc(O)c2)[C@@H](C)C1 (some centres unmarked) [Example 65, monohydrochloride]", "units": "%", "val": 95}
{"compound": "C[C@H]1CN(CC(Cc2ccccc2)C(=O)NCCN(C)C)CC[C@@]1(C)c1cccc(O)c1 (relative stereo) [Example 69, dihydrochloride]", "units": "%", "val": 89}
{"compound": "CCCCCOC(=O)CNC(=O)C(Cc1ccccc1)CN1CC[C@@](C)(c2cccc(O)c2)[C@@H](C)C1 (relative stereo) [Example 86]", "units": "%", "val": 91}
{"compound": "C[C@H]1CN(CC(Cc2ccccc2)C(=O)NCC(=O)OC2CCCCC2)CC[C@@]1(C)c1cccc(O)c1 (some centres unmarked) [Example 52, monohydrochloride]", "units": "%", "val": 92}

* * *

Molecular target: peripheral opioid receptors (Mus musculus)
Construct: Mice maintained (6 mice/cage) on 0.01M saccharin water with 1 g/1 morphine sulfate; from tissue; host or cells: living morphine-maintained mice (in vivo test; endogenous receptor)
Sequence (P42866 whole entry): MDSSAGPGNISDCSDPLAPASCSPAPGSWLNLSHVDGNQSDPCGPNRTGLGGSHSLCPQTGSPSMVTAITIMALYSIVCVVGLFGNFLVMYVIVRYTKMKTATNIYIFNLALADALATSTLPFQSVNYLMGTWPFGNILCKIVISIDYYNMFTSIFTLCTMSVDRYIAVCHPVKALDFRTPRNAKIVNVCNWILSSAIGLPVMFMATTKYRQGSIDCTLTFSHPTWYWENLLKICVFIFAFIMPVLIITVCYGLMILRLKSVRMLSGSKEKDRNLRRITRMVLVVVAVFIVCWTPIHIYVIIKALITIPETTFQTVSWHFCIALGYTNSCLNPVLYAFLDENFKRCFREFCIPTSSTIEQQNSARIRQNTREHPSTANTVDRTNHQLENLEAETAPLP
Assay: precipitated diarrhea in morphine-maintained mice (peripheral opioid activity) and comparison with the writhing test
Type: in vivo
Settings: mouse, 0.5 h, morphine-maintained mice; antagonist subcutaneous or oral; 30 min observation
Description: Determinations of peripheral opioid activity were conducted. […] The mice were then monitored visually for 30 minutes post-injection for the presence of jumping and of diarrhea. Jumping was scored as positive if at least one jump occurred in 30 min. Diarrhea was scored as positive when feces were moist enough to stain the white paper at the base of the cylinder. […] Lower doses of the antagonist compounds were tested until threshold doses for diarrhea were determined. […]
Counter-ions that a name gives are not always drawn.
reported endpoint: ED50 (mg/kg)

{"molecule": "CCNC(=O)CNC(=O)C(Cc1ccccc1)CN1CC[C@@](C)(c2cccc(O)c2)[C@@H](C)C1 (stereo partly shown) [Example 45]", "val": 0.24}
{"molecule": "C[C@H]1CN(CC(Cc2ccccc2)C(=O)NCCC(=O)OCc2ccccc2)CC[C@@]1(C)c1cccc(O)c1 (stereo partly shown) [Example 56, hydrochloride]", "val": 0.06}
{"molecule": "CCOC(=O)CNC(=O)C(Cc1ccccc1)CN1CC[C@@](C)(c2cccc(O)c2)[C@@H](C)C1 (stereo partly shown) [Example 43, hydrochloride]", "val": 0.013}
{"molecule": "COC1CCC(OC(=O)CNC(=O)C(Cc2ccccc2)CN2CC[C@@](C)(c3cccc(O)c3)[C@@H](C)C2)CC1 (relative stereo) [Example 92]", "val": 0.005}

* * *

Molecular target: mu receptor (Rattus norvegicus, UniProt P33535)
Construct: rat whole brain minus cerebellum for mu was homogenized; from tissue; host or cells: brain of male Sprague Dawley rats, whole brain minus cerebellum, homogenate fraction
Assay: opioid receptor binding assay, [3H] NAL (tritiated naloxone), mu receptor
Set-up: species or system rat (Male Sprague Dawley), brain minus cerebellum
Details: 20 min, read-out: % displacement at 100 nM, 100 nM test compound; [3H] naloxone 0.5 nM
Counter-ions that a name gives are not always drawn.
reported endpoint: inhibition at 0.1 µM

{"compound": "CCOC(=O)CNC(=O)C(Cc1ccccc1)CN1CC[C@@](C)(c2cccc(O)c2)[C@@H](C)C1 (stereo partly drawn) [Example 43, hydrochloride]", "val": "99%"}
{"compound": "C[C@H]1CN(CCC(C(=O)NCC(N)=O)C2CCCCC2)CC[C@@]1(C)c1cccc(O)c1 (relative stereo) [Example 20, hydrochloride monohydrate]", "val": "100%"}
{"compound": "CNC(=O)CCCNC(=O)C(CC1CCCCC1)CN1CC[C@@](C)(c2cccc(O)c2)[C@@H](C)C1 (stereo partly drawn) [Example 41, monohydrochloride]", "val": "100%"}
{"compound": "CCOC(=O)CNC(=O)C(CCN1CC[C@@](C)(c2cccc(O)c2)[C@@H](C)C1)c1ccccc1 (relative stereo) [Example 11, monohydrochloride]", "val": "89%"}
{"compound": "C[C@H]1CN(CCC(C(=O)NCCC(=O)O)C2CCCCC2)CC[C@@]1(C)c1cccc(O)c1 (relative stereo) [Example 26, monohydrate]", "val": "91%"}
{"compound": "CC(C)NC(=O)CNC(=O)C(Cc1ccccc1)CN1CC[C@@](C)(c2cccc(O)c2)[C@@H](C)C1 (stereo partly drawn) [Example 48, hydrochloride monohydrate]", "val": "100%"}

Data origin, for the record: patent US5250542A
